The measured values listed here are drawn from PubChem BioAssay (NCI).

Tested on: HL-60(TB) leukemia
TEST NAME: NCI-60 one-dose screen, 48 h
TEST CONDITIONS: 10 µM unless noted
The panel holds about 83,000 compounds, 20% with a hit somewhere; the sample as a whole holds those more often. Active and inactive are the calls of the source. The calls were made as follows: active = growth percent below 10; inactive = the rest.
Outcome codes: T = active, F = inactive

- COMPOUND: "CCCCCCCCCCCCCCCC(=O)OCC1OC(n2cnc3c(=S)nc(N)[nH]c32)C(OC(=O)CCCCCCCCCCCCCCC)C1OC(=O)CCCCCCCCCCCCCCC (stereo not given)"
  LABEL: "F"
- COMPOUND: "CSc1ccc2c(c1)c(CCN)c(C)n2Cc1ccc(Cl)c(Cl)c1"
  LABEL: "T"
- COMPOUND: "Cc1ccc2sc3c(NCCCN)nc4ccccc4c3c(=O)c2c1"
  LABEL: "T"
- COMPOUND: "[2H]c1nc(=Nc2cc(NC(=O)C=C)c(N(C)CCN(C)C)cc2OC)[nH]c(-c2cn(C([2H])([2H])[2H])c3ccccc23)c1[2H]"
  LABEL: "T"
- COMPOUND: "Cc1cccc(C)c1NC(=O)CSC(=S)N1CCN(CCOCCO)CC1"
  LABEL: "F"
- COMPOUND: "COc1cc(OC)c2c(=O)cc(-c3ccccc3)oc2c1"
  LABEL: "F"
- COMPOUND: "COc1cc(C2C(C#N)=C(N)OC3=C2C(=O)c2ccccc2C3=O)cc(OC)c1OC (stereo not given)"
  LABEL: "F"
- COMPOUND: "COc1ccc(-c2nnc(NC(=O)CN3CCN(c4cc5c(cc4F)c(=O)c(C(=O)O)cn5C4CC4)CC3)s2)cc1OC"
  LABEL: "F"
- COMPOUND: "O=C(N/N=C/c1cccc(O)c1O)c1ccccc1"
  LABEL: "F"
- COMPOUND: "CCOC(=O)c1ccc2c(c1)[n+](=O)c(C(=O)C1CCCS1)c(C(F)(F)F)n2[O-] (stereo not given)"
  LABEL: "T"

* * *

Test system: 786-0 renal
TEST NAME: NCI-60 one-dose screen, 48 h (100 = growth as untreated, 0 = no growth, -100 = all killed)
TEST CONDITIONS: 10 µM unless noted
This is part of a sample that, as a whole, favours compounds with a hit. Of some 83,000 tested, about 20% had one in any assay.
Could you please mark yes (1) for values of growth below 80% and no (0) for values at or above it?

- COMPOUND: "C[C@@H]1O[C@@H](O[C@H]2CC[C@@]3(C)[C@H](CCC4[C@@H]3C(O)C[C@]3(C)[C@@H](c5ccc(=O)oc5)CC[C@]43O)C2)[C@H](O)[C@H](O)[C@H]1O (stereo partly specified)"
  LABEL: "yes (1)"
- COMPOUND: "COc1cc(C2CC(=O)Nc3nc(N)[se]c32)c(OC)c2c1OCO2 (stereo unspecified)"
  LABEL: "no (0)"
- COMPOUND: "CCOC(=O)/C(C#N)=C/c1ccc(N(CCCl)CCCl)cc1"
  LABEL: "no (0)"
- COMPOUND: "CCCCN(CCCC)CC(O)c1ccccc1 (stereo unspecified)"
  LABEL: "no (0)"
- COMPOUND: "Cc1ccc(C[As+](c2ccccc2)(c2ccccc2)c2ccccc2)cc1"
  LABEL: "yes (1)"
- COMPOUND: "Cc1cc(NC(=O)NCCOc2ccc(N3C(N)=NC(N)=NC3(C)C)cc2Cl)ccc1S(=O)(=O)F"
  LABEL: "yes (1)"
- COMPOUND: "[O]=[Sn]([CH]1CCCCC1)[CH]1CCCCC1"
  LABEL: "yes (1)"
- COMPOUND: "S=P(NC1CCCCC1)(N1CC1)N1CC1"
  LABEL: "no (0)"
- COMPOUND: "ClCCN(CCCl)c1nc(Cl)c(C2CC(c3ccccc3)=NN2c2ccccc2)s1 (stereo unspecified)"
  LABEL: "no (0)"
- COMPOUND: "CC1COC(=O)C1 (stereo unspecified)"
  LABEL: "no (0)"
- COMPOUND: "O=[N+]([O-])c1ccc2cnn(CSP(=S)(c3ccccc3)c3ccccc3)c2c1"
  LABEL: "no (0)"
- COMPOUND: "COc1cc(NCCCCCN=C(N)N)c2ncccc2c1"
  LABEL: "no (0)"
- COMPOUND: "CC[CH2][Pb]([CH2]CC)([CH2]CC)[O]C(=O)C(F)(F)F"
  LABEL: "yes (1)"
- COMPOUND: "O=CC(Br)C(Br)c1ccccc1 (stereo unspecified)"
  LABEL: "no (0)"
- COMPOUND: "Oc1ccccc1OB(Oc1ccccc1O)N(CCCl)CCCl"
  LABEL: "no (0)"
- COMPOUND: "C[C@]12CCc3sc(-c4ccc(Cl)cc4)nc3C1=CC[C@@H]1[C@@H]2CC[C@]2(C)C(=O)CC[C@@H]12"
  LABEL: "yes (1)"
- COMPOUND: "CCCCCCCCCCCCOc1ccc(C(=O)Oc2ccc(CSP3(=O)OCC4OC(n5cnc6c(N)ncnc65)C(F)C4OP(=O)(O)OCC4OC(n5ccc(=O)[nH]c5=O)C(F)C4O3)cc2)cc1 (stereo unspecified)"
  LABEL: "no (0)"
- COMPOUND: "CCOCC1(CCc2ccccc2)C(=O)NC(=S)NC1=O"
  LABEL: "no (0)"
- COMPOUND: "COc1cc(/C=C\\c2cc(OC)c(OC)c(OC)c2)cc(N/C=C\\C(=O)c2ccc(OC(F)(F)F)cc2)c1OC"
  LABEL: "yes (1)"
- COMPOUND: "O=C(O)C1[O][Sb][O]C1C(=O)O (stereo unspecified)"
  LABEL: "no (0)"
- COMPOUND: "COC(=O)C[Se]C(=O)c1ccccc1OC(C)=O"
  LABEL: "no (0)"

* * *

System: LOX IMVI melanoma
TEST NAME: NCI-60 one-dose screen, 48 h (100 = growth as untreated, 0 = no growth, -100 = all killed)
TEST CONDITIONS: 10 µM unless noted
About 83,000 compounds went through this panel and 20% of them were active in at least one assay; those are over-represented in the sample as a whole. Calls of active or inactive are those of the source. Rule for the calls: active = growth percent below 10; inactive = the rest.
Entries annotated with measured growth

- COMPOUND: "O1[As]2O[As]3O[As]1O[As](O2)O3"
  growth: "0.399% (active)"
- COMPOUND: "OB([O][Hg][c]1ccccc1)[O][Hg][c]1ccccc1"
  growth: "-29.2% (active)"
- COMPOUND: "C[CH2][Pb]([CH2]C)([CH2]C)[O]C(=O)c1ccc(N)cc1"
  growth: "68.5% (inactive)"
- COMPOUND: "COc1ccc(/C=C\\c2cc(OC)c(OC)c(OC)c2)cc1N/C=C\\C(=O)c1c[nH]c2ccccc12"
  growth: "19.6% (inactive)"
- COMPOUND: "COc1cc(C2CC(=O)Nc3nc(N)[se]c32)cc(OC)c1OC (stereo not given)"
  growth: "105% (inactive)"
- COMPOUND: "O=S(=O)(Cl)c1ccccc1 (tested in a mixture with another compound)"
  growth: "98.8% (inactive)"
- COMPOUND: "CCCCNCCc1ccccn1"
  growth: "97.1% (inactive)"
- COMPOUND: "COC(=O)C1CC2c3ccccc3C1c1ccccc12 (stereo not given)"
  growth: "94.7% (inactive)"
- COMPOUND: "O=C(Nc1ccc(S(=O)(=O)F)cc1)Oc1ccccc1"
  growth: "95.1% (inactive)"
- COMPOUND: "CCOc1c(Cl)cc(CNC(C)C(O)c2ccccc2)cc1OC (stereo not given)"
  growth: "57.1% (inactive)"
- COMPOUND: "N#CC1c2ccccc2C=CN1C(=O)c1ccc(N(CCCl)CCCl)cc1 (stereo not given)"
  growth: "90.4% (inactive)"
- COMPOUND: "COc1ccccc1N1CCN(CCc2c[nH]c3cc4c(cc23)OCO4)CC1"
  growth: "60.4% (inactive)"
- COMPOUND: "CC(=O)O[C@@H]1C2=C(C)C3(CC3)[C@@](C)(O)C(=O)C2=C[C@@]1(C)CO"
  growth: "-25.2% (active)"
- COMPOUND: "Cc1cc(NC(=O)NCCOc2ccc(N3C(N)=NC(N)=NC3(C)C)cc2Cl)ccc1S(=O)(=O)F"
  growth: "12.8% (inactive)"
- COMPOUND: "O=c1[nH]c2cc(Cl)ccc2n1C1CCN(CCCC(c2ccc(F)cc2)c2ccc(F)cc2)CC1"
  growth: "-91.9% (active)"
- COMPOUND: "NCCc1cc(O)c(O)cc1O"
  growth: "101% (inactive)"
- COMPOUND: "CC(=O)N1N=C(c2ccccc2)CC1c1sc(N(CCCl)CCCl)nc1Cl (stereo not given)"
  growth: "103% (inactive)"
- COMPOUND: "C=CCc1ccc(OC(=O)Cc2ccccc2)c(OC)c1"
  growth: "93.6% (inactive)"
- COMPOUND: "COc1ccc(C2=NN(c3ccccc3)C(c3sc(N(CCCl)CCCl)nc3Cl)C2)cc1 (stereo not given)"
  growth: "89.8% (inactive)"
- COMPOUND: "Cc1cc(NC(=O)CCc2ccc(N3C(N)=NC(N)=NC3(C)C)cc2)ccc1S(=O)(=O)F"
  growth: "18.1% (inactive)"
- COMPOUND: "CC1(C)N=C(N)N=C(N)N1c1ccc(CNC(=O)Nc2ccc(S(=O)(=O)F)c(Cl)c2)c(Cl)c1"
  growth: "11.9% (inactive)"
- COMPOUND: "O=C(CCCN1CCC2(CC1)C(=O)NCN2c1ccc(F)cc1)c1ccc(F)cc1"
  growth: "106% (inactive)"
- COMPOUND: "C[CH2][Pb]([CH2]C)([CH2]C)[O]C(=O)COc1ccccc1"
  growth: "-35.8% (active)"
- COMPOUND: "COc1cc(NCCCCCN=C(N)N)c2ncccc2c1"
  growth: "66.4% (inactive)"
- COMPOUND: "CCC(/C=C(C)/C=C/C(=O)c1c(O)c(-c2ccc(O)cc2)c[nH]c1=O)CO (stereo not given)"
  growth: "87.2% (inactive)"
- COMPOUND: "CC[CH2][Pb]([CH2]CC)([CH2]CC)[O]C(=O)C(F)(F)F"
  growth: "-82.3% (active)"
- COMPOUND: "[N-]=[N+]=NC(C(=O)O)c1ccccc1 (stereo not given)"
  growth: "100% (inactive)"
- COMPOUND: "O=[N+]([O-])c1cc([N+](=O)[O-])c(Cl)c(Cl)c1Cl"
  growth: "-62.6% (active)"
- COMPOUND: "O=C1C=CC(=O)C2C1C1(Cl)C(Cl)=C(Cl)C2(Cl)C1(Cl)Cl (stereo not given)"
  growth: "50.5% (inactive)"
- COMPOUND: "CC(=O)[O][Hg][c]1nc2c(c(=O)n(C)c(=O)n2C)n1C"
  growth: "-28.5% (active)"
- COMPOUND: "NC(=O)C(Br)CBr (stereo not given)"
  growth: "3.13% (active)"
- COMPOUND: "CC1(C)N=C(N)N=C(N)N1c1cccc(C(=O)Nc2cccc(S(=O)(=O)F)c2)c1"
  growth: "99.7% (inactive)"
- COMPOUND: "COc1cc(CNCCc2ccc(Cl)cc2)cc(OC)c1O"
  growth: "70.7% (inactive)"
- COMPOUND: "c1ccc2nc(OCCN3CC3)ccc2c1"
  growth: "86.3% (inactive)"
- COMPOUND: "COc1ccc(OC)c(/C=C(/C)[N+](=O)[O-])c1"
  growth: "-88.6% (active)"
- COMPOUND: "O=C(CI)Nc1ccc(Br)cc1"
  growth: "-78.6% (active)"
- COMPOUND: "CC(CC(C#N)(c1ccccc1)c1ccccc1)N1CCOCC1 (stereo not given)"
  growth: "102% (inactive)"
- COMPOUND: "CC1COC(=O)C1 (stereo not given)"
  growth: "100% (inactive)"
- COMPOUND: "CNC(=O)Oc1cc(C(C)C)ccc1Sc1ccc(C(C)C)cc1OC(=O)NC"
  growth: "62.2% (inactive)"
- COMPOUND: "CC(=O)Oc1ccc(Cl)cc1"
  growth: "90.5% (inactive)"
- COMPOUND: "CC1(C)N=C(N)N=C(N)N1c1ccc(CCC(=O)Nc2cccc(S(=O)(=O)F)c2)cc1"
  growth: "23.5% (inactive)"
- COMPOUND: "CCCCn1cc(C(=O)/C(C#N)=C/c2cc3ccccc3nc2Cl)c2cc(OC)ccc21"
  growth: "74% (inactive)"
- COMPOUND: "CN1CCN(C(=O)COc2ccc(/C=C3\\CC4C5CC=C6CC(Cl)CCC6(C)C5CCC4(C)C3=O)cc2)CC1 (stereo not given)"
  growth: "23.5% (inactive)"
- COMPOUND: "Fc1ccc(C2=NN(c3ccccc3)C(c3sc(N(CCCl)CCCl)nc3Cl)C2)cc1 (stereo not given)"
  growth: "83.2% (inactive)"
- COMPOUND: "COc1ccc(C2SCC(=O)Nc3c2c(C)nn3-c2nc3ccc(C)cc3s2)cc1O (stereo not given)"
  growth: "36.9% (inactive)"
